Each entry below carries its recorded Kd.
Target: T1, IR485 construct of human insulin receptor (human, UniProt P06213 28-512)
T1 construct: The tag was not removed for ITC; Expressed in Lec8 mutant CHO cells; also called insulin mini-receptor IR485; first three domains of IR (L1-CR-L2)
T1 chain: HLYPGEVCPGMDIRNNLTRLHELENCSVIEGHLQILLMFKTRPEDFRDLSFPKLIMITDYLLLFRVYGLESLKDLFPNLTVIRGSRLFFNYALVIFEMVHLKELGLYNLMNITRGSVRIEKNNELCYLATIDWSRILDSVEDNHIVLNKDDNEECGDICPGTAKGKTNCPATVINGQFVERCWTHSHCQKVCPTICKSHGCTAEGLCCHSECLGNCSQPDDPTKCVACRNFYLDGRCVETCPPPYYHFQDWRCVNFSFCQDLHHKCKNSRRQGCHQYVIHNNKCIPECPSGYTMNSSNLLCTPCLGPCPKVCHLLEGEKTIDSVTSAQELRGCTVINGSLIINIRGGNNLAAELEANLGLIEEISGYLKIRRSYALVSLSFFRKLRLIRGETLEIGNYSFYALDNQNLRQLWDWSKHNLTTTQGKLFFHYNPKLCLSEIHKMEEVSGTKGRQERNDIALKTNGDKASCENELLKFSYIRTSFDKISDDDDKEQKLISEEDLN
Assay: ITC, 25 °C, peptide titrated into IR485
Bridge positions count the residues as written; N and C are the ends. Ends that are not written are not given here.

Field request: Kd | item: GSLDESFYDWFERQLG (Synthetic peptide, AusPep, >90% purity; also called Site 1 peptide, the 16 C-terminal residues of S519) [S519C16 peptide]
2.6 nM

Now examine the next entry.
Field request: Kd | item: SLEEEWAQVECEVYGRGCPSGSLDESFYDWFERQLG (disulfide 11-18 (inferred), 36-residue synthetic peptide, Activotec, >85% purity; also called insulin mimetic peptide S519) [S519 peptide]
11 nM
